# ASSAYED_TARGET: SmoB (Atu3278), 6-OG reductase (Agrobacterium fabrum)
# Sequence (A9CEY6 whole entry): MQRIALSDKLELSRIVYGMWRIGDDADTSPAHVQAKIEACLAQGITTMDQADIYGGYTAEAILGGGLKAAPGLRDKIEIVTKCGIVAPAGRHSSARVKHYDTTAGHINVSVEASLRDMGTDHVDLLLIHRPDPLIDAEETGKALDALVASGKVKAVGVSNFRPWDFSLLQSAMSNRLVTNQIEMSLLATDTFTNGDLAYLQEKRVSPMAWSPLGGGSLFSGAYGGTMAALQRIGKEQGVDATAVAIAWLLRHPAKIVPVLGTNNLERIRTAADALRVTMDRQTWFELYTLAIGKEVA
EXPERIMENTAL_ENDPOINT: Kd

[[record]]
compound = "NC(=O)C1=CN([C@@H]2O[C@H](COP(=O)(O)OP(=O)(O)OC[C@H]3O[C@@H](n4cnc5c(N)ncnc54)[C@H](OP(=O)(O)O)[C@@H]3O)[C@@H](O)[C@H]2O)C=CC1 [NADPH]"
value_measured = "~2000 nM"

